Target: T1, human IL-18 binding protein (IL-18BP) (human, UniProt O95998 31-194)
T1 construct: also called hu IL-18BP; hIL18BP
T1 sequence (looked up): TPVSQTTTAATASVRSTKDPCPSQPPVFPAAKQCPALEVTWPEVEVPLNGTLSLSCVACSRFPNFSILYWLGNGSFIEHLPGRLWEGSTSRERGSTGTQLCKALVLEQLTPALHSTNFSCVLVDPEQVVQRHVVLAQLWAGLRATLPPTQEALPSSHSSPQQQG
Assay: Octet BLI
Protocol: Octet 96red instrument was used to determine affinities of IL18 proteins to BP or receptors. 5-10 ug/ml analyte proteins were used for loading on Sartorius tips (AHC or SA). […] 120-180 s loading, 200 s association and 800 s dissociation were used for kinetics. 3-7 data points were used to calculate affinities. […]
Listed binders paired with reported Kd
I only need the number, in nM, no unit after it.

Recorded results for 8 binders are shown here.
Request: For the binder IL-18 variant G3R, K53S (ligand) YFRKLESKLSVIRNLNDQVLFIDQGNRPLFEDMTDSDMRDNAPRTIFIISMYSDSQPRGMAVTISVKSEKISTLSSENKIISFKEMNPPDNIKDTKSDIIFFQRSVPGHDNKMQFESSSYEGYFLASEKERDLFKLILKKEDELGDRSIMFTVQNED , what Kd is on record?
Response: 4

Request: For the binder IL-18 variant G3A, N91L, K53S (ligand) YFAKLESKLSVIRNLNDQVLFIDQGNRPLFEDMTDSDMRDNAPRTIFIISMYSDSQPRGMAVTISVKSEKISTLSSENKIISFKEMNPPDLIKDTKSDIIFFQRSVPGHDNKMQFESSSYEGYFLASEKERDLFKLILKKEDELGDRSIMFTVQNED , what Kd is on record?
Response: 4.8

Request: For the binder IL-18 variant G3R, N91M, K53A (ligand, also called G3R/K53A/N91M) YFRKLESKLSVIRNLNDQVLFIDQGNRPLFEDMTDSDMRDNAPRTIFIISMYADSQPRGMAVTISVKSEKISTLSSENKIISFKEMNPPDMIKDTKSDIIFFQRSVPGHDNKMQFESSSYEGYFLASEKERDLFKLILKKEDELGDRSIMFTVQNED , what Kd is on record?
Response: 1.5

Request: For the binder IL-18 variant G3R, N91M, K53S (ligand, also called G3R/K53S/N91M) YFRKLESKLSVIRNLNDQVLFIDQGNRPLFEDMTDSDMRDNAPRTIFIISMYSDSQPRGMAVTISVKSEKISTLSSENKIISFKEMNPPDMIKDTKSDIIFFQRSVPGHDNKMQFESSSYEGYFLASEKERDLFKLILKKEDELGDRSIMFTVQNED , what Kd is on record?
Response: 3.3

Request: For the binder IL-18 variant G3F, K53S (ligand) YFFKLESKLSVIRNLNDQVLFIDQGNRPLFEDMTDSDMRDNAPRTIFIISMYSDSQPRGMAVTISVKSEKISTLSSENKIISFKEMNPPDNIKDTKSDIIFFQRSVPGHDNKMQFESSSYEGYFLASEKERDLFKLILKKEDELGDRSIMFTVQNED , what Kd is on record?
Response: 11.8

Request: For the binder IL-18 variant G3R, N91W, K53A (ligand, also called G3R/K53A/N91W) YFRKLESKLSVIRNLNDQVLFIDQGNRPLFEDMTDSDMRDNAPRTIFIISMYADSQPRGMAVTISVKSEKISTLSSENKIISFKEMNPPDWIKDTKSDIIFFQRSVPGHDNKMQFESSSYEGYFLASEKERDLFKLILKKEDELGDRSIMFTVQNED , what Kd is on record?
Response: 1

Request: For the binder IL-18 variant G3R, N91A, K53S (ligand, also called G3R/K53S/N91A) YFRKLESKLSVIRNLNDQVLFIDQGNRPLFEDMTDSDMRDNAPRTIFIISMYSDSQPRGMAVTISVKSEKISTLSSENKIISFKEMNPPDAIKDTKSDIIFFQRSVPGHDNKMQFESSSYEGYFLASEKERDLFKLILKKEDELGDRSIMFTVQNED , what Kd is on record?
Response: 3.4

Request: For the binder IL-18 variant G3E, K53S (ligand) YFEKLESKLSVIRNLNDQVLFIDQGNRPLFEDMTDSDMRDNAPRTIFIISMYSDSQPRGMAVTISVKSEKISTLSSENKIISFKEMNPPDNIKDTKSDIIFFQRSVPGHDNKMQFESSSYEGYFLASEKERDLFKLILKKEDELGDRSIMFTVQNED , what Kd is on record?
Response: 396

Others:
Request: For the binder IL-18 variant G3A, K53S (ligand) YFAKLESKLSVIRNLNDQVLFIDQGNRPLFEDMTDSDMRDNAPRTIFIISMYSDSQPRGMAVTISVKSEKISTLSSENKIISFKEMNPPDNIKDTKSDIIFFQRSVPGHDNKMQFESSSYEGYFLASEKERDLFKLILKKEDELGDRSIMFTVQNED , what Kd is on record?
Response: 16.2

Request: For the binder IL-18 variant G3K, N91I, K53S (ligand) YFKKLESKLSVIRNLNDQVLFIDQGNRPLFEDMTDSDMRDNAPRTIFIISMYSDSQPRGMAVTISVKSEKISTLSSENKIISFKEMNPPDIIKDTKSDIIFFQRSVPGHDNKMQFESSSYEGYFLASEKERDLFKLILKKEDELGDRSIMFTVQNED , what Kd is on record?
Response: 1.9
